system: HS27; assay: Cytotoxicity against human HS27 cells assessed as dead cells at 1 uM after 24 hrs; type: cell-based; settings: hs27, 24 h
Field: label. Allowed values: Y (Activity < 10%) or N (Activity >= 10%).

* O=C1/C(=C/c2ccc(F)cc2)CN(C(=O)C(=O)N2C/C(=C\c3ccc(F)cc3)C(=O)/C(=C/c3ccc(F)cc3)C2)C/C1=C\c1ccc(F)cc1 | Y

Query: Please let me know if COc1cc(/C=C2\CN(C(=O)C(=O)N3C/C(=C\c4cc(OC)c(OC)c(OC)c4)C(=O)/C(=C/c4cc(OC)c(OC)c(OC)c4)C3)C/C(=C\c3cc(OC)c(OC)c(OC)c3)C2=O)cc(OC)c1OC shows Activity below 10%.
Response: N

Query: Again, but for O=C1/C(=C/c2ccc(Cl)cc2)CN(C(=O)C(=O)N2C/C(=C\c3ccc(Cl)cc3)C(=O)/C(=C/c3ccc(Cl)cc3)C2)C/C1=C\c1ccc(Cl)cc1
Response: Y

Query: // next record Cc1ccc(/C=C2/CN(C(=O)CC(=O)N3C/C(=C\c4ccc(C)cc4)C(=O)/C(=C/c4ccc(C)cc4)C3)C/C(=C\c3ccc(C)cc3)C2=O)cc1
Response: N

Query: Okay, and COc1ccc(/C=C2/CN(C(=O)CC(=O)N3C/C(=C\c4ccc(OC)c(OC)c4)C(=O)/C(=C/c4ccc(OC)c(OC)c4)C3)C/C(=C\c3ccc(OC)c(OC)c3)C2=O)cc1OC ?
Response: Y

###

test system: CCRF-CEM; test: Antiproliferative activity against human CEM cells after 72 hrs by coulter counting analysis; type: functional, cell-based
pIC50: −log10 of the molar value.
Using pIC50 as the sorting value, the categories are low interval: < 5; middle interval: ≥ 5 and < 6; high interval: ≥ 6

As a guide, the following entries are already answered.
- COc1ccc(/C=C2/CN(C(=O)CC(=O)N3C/C(=C\c4ccc(OC)c(OC)c4)C(=O)/C(=C/c4ccc(OC)c(OC)c4)C3)C/C(=C\c3ccc(OC)c(OC)c3)C2=O)cc1OC: high interval
- Cc1ccc(/C=C2/CN(C(=O)CC(=O)N3C/C(=C\c4ccc(C)cc4)C(=O)/C(=C/c4ccc(C)cc4)C3)C/C(=C\c3ccc(C)cc3)C2=O)cc1: middle interval
- COc1cc(/C=C2/CN(C(=O)CC(=O)N3C/C(=C\c4cc(OC)c(OC)c(OC)c4)C(=O)/C(=C/c4cc(OC)c(OC)c(OC)c4)C3)C/C(=C\c3cc(OC)c(OC)c(OC)c3)C2=O)cc(OC)c1OC: high interval
- O=C1/C(=C\c2ccc(Cl)c(Cl)c2)CN(C(=O)CC(=O)N2C/C(=C\c3ccc(Cl)c(Cl)c3)C(=O)/C(=C/c3ccc(Cl)c(Cl)c3)C2)C/C1=C\c1ccc(Cl)c(Cl)c1: low interval

Turning now to a further record.
Query: // return the class label for COc1cc(/C=C2\CN(C(=O)C(=O)N3C/C(=C\c4cc(OC)c(OC)c(OC)c4)C(=O)/C(=C/c4cc(OC)c(OC)c(OC)c4)C3)C/C(=C\c3cc(OC)c(OC)c(OC)c3)C2=O)cc(OC)c1OC
Response: high interval

###

test system: CCRF-CEM; assay: Antiproliferative activity against human CEM cells after 72 hrs by coulter counting analysis; assay type: functional, cell-based
measuredProperty: log10 IC50 (log10 of the value in nM)
Values are log10 of IC50 in nM.

• O=C1/C(=C/c2ccc(Cl)cc2)CN(C(=O)C(=O)N2C/C(=C\c3ccc(Cl)cc3)C(=O)/C(=C/c3ccc(Cl)cc3)C2)C/C1=C\c1ccc(Cl)cc1 = 2.90

Query: # lookup: log10 IC50 of CN(C)c1ccc(/C=C2\CN(C(=O)C(=O)N3C/C(=C\c4ccc(N(C)C)cc4)C(=O)/C(=C/c4ccc(N(C)C)cc4)C3)C/C(=C\c3ccc(N(C)C)cc3)C2=O)cc1
Response: 5.44

Query: Repeat for the following compound: O=C1/C(=C\c2ccccc2)CN(CCCN2C/C(=C\c3ccccc3)C(=O)/C(=C/c3ccccc3)C2)C/C1=C\c1ccccc1
Response: 3.40

Query: Further, for O=C1/C(=C\c2ccc(Cl)cc2)CN(C(=O)CC(=O)N2C/C(=C\c3ccc(Cl)cc3)C(=O)/C(=C/c3ccc(Cl)cc3)C2)C/C1=C\c1ccc(Cl)cc1 ?
Response: 3.03

Query: What do we get for Cc1ccc(/C=C2\CN(C(=O)C(=O)N3C/C(=C\c4ccc(C)cc4)C(=O)/C(=C/c4ccc(C)cc4)C3)C/C(=C\c3ccc(C)cc3)C2=O)cc1 ?
Response: 3.89

Query: Follow-up item: O=C1/C(=C\c2ccc(F)cc2)CN(C(=O)CC(=O)N2C/C(=C\c3ccc(F)cc3)C(=O)/C(=C/c3ccc(F)cc3)C2)C/C1=C\c1ccc(F)cc1
Response: 3.44
